Test Name: Mouse PK assay
Assay type: in vivo, B6 female mice
Settings: po
Label label 1 when Mouse Cmin, po >= 4 ng/mL; otherwise label 0.

INSERT INTO measurements (compound, category_label) VALUES
  ('COC[C@H]1CCCN1C(=O)c1cc2nccc(Nc3ccc4c(c3)cc(C)n4C(=O)NC3CC3)c2s1', 'label 1'),
  ('CCOC(=O)c1csc(-c2cc3nccc(Nc4ccc5c(c4)cc(C)n5C(=O)NC)c3s2)n1', 'label 0'),
  ('CCCNC(=O)n1c(C)cc2cc(Oc3ccnc4cc(C(=O)N5CC[C@H](O)C5)sc34)ccc21', 'label 1'),
  ('CNC(=O)n1c(C)cc2cc(Oc3ccnc4cc(C(=O)N5CCC[C@H]5COC)sc34)ccc21', 'label 0'),
  ('CNC(=O)n1c(C)cc2cc(Nc3ccnc4cc(C(=O)N5CC[C@@H](O)C5)sc34)ccc21', 'label 0');

Qu. Does Mouse Cmin, po meet or surpass 4 ng/mL for Cc1cc2cc(Nc3ccnc4cc(C(=O)N5CCC[C@H]5CO)sc34)ccc2n1C(=O)NC1CC1 ?
Ans. label 0

Qu. Does Mouse Cmin, po meet or surpass 4 ng/mL for CNC(=O)n1c(C)cc2cc(Nc3ccnc4cc(C(=O)N5CCC[C@@H]5CO)sc34)ccc21 ?
Ans. label 0

Qu. Does Mouse Cmin, po meet or surpass 4 ng/mL for CNC(=O)n1c(C)cc2c(F)c(Oc3ccnc4cc(C(=O)N5CCC[C@H]5CO)sc34)ccc21 ?
Ans. label 1

Qu. Does Mouse Cmin, po meet or surpass 4 ng/mL for C#CCNC(=O)n1c(C)cc2c(F)c(Oc3ccnc4cc(C(=O)N5CCC(O)C5)sc34)ccc21 (stereo in doubt) ?
Ans. label 1

Qu. Does Mouse Cmin, po meet or surpass 4 ng/mL for Cc1cc2cc(Nc3ccnc4cc(-c5nccn5C)sc34)ccc2n1C(=O)NC1CC1 ?
Ans. label 0

Qu. Does Mouse Cmin, po meet or surpass 4 ng/mL for C#CCNC(=O)n1c(C)cc2cc(Oc3ccnc4cc(C(=O)N5CC[C@H](OC)C5)sc34)ccc21 ?
Ans. label 1

Qu. Does Mouse Cmin, po meet or surpass 4 ng/mL for CNC(=O)n1c(C)cc2cc(Nc3ccnc4cc(C(=O)N5CC[C@@H](OC)C5)sc34)ccc21 ?
Ans. label 1

Qu. Does Mouse Cmin, po meet or surpass 4 ng/mL for C#CCNC(=O)n1c(C)cc2cc(Oc3ccnc4cc(C(=O)N5CC[C@@H](O)C5)sc34)ccc21 ?
Ans. label 1

Qu. Does Mouse Cmin, po meet or surpass 4 ng/mL for CNC(=O)n1c(C)cc2cc(Oc3ccnc4cc(C(=O)N5CC[C@@H](OC)C5)sc34)ccc21 ?
Ans. label 1

---

Assayed Target: unphosphorylated VEGF-R2Δ50 (FLVK) (Homo sapiens, UniProt P35968, DEL940-989/E990V)
Construct: VEGF-R2Δ50 contains residues 806-939 and 990-1171
Sequence (P35968 with tags, fused parts or gaps DEL940-989/E990V limits assumed): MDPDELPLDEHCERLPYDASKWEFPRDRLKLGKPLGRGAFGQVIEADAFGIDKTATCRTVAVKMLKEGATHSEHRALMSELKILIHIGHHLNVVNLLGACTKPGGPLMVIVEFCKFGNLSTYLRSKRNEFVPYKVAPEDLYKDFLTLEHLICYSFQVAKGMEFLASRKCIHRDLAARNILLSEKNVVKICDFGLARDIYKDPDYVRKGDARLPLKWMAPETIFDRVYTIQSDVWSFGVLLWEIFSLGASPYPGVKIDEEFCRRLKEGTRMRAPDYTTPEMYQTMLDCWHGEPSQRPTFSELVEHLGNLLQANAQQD
Test Name: VEGF-R2 coupled spectrophotometric assay, unphosphorylated construct (FLVK)
Catalogue of Ki values
Supply the numeric figure in nM, leaving out any unit text.

# count of solved cases: 6
INSERT INTO results (compound, assayed_target, assay_endpoint, recorded_result) VALUES
  ('CCCNC(=O)n1c(C)cc2cc(Oc3ccnc4cc(C(=O)N5C[C@H](O)[C@@H](O)C5)sc34)ccc21', 'unphosphorylated VEGF-R2Δ50 (FLVK) (Homo sapiens, UniProt P35968, DEL940-989/E990V)', 'Ki', 0.35),
  ('CNC(=O)n1c(C)cc2cc(Nc3ccnc4cc(C(=O)N5CC(F)[C@H](OC)C5)sc34)ccc21 (stereo partly drawn)', 'unphosphorylated VEGF-R2Δ50 (FLVK) (Homo sapiens, UniProt P35968, DEL940-989/E990V)', 'Ki', 0.796),
  ('CNC(=O)n1c(C)cc2cc(Oc3ccnc4cc(C(=O)N5CCC5)sc34)ccc21', 'unphosphorylated VEGF-R2Δ50 (FLVK) (Homo sapiens, UniProt P35968, DEL940-989/E990V)', 'Ki', 0.004),
  ('CNC(=O)n1c(C)cc2cc(Nc3ccnc4cc(-c5nccn5C)sc34)ccc21', 'unphosphorylated VEGF-R2Δ50 (FLVK) (Homo sapiens, UniProt P35968, DEL940-989/E990V)', 'Ki', 2.1),
  ('C#CCNC(=O)n1c(C)cc2cc(Oc3ccnc4cc(C(=O)N5C[C@H](OC)[C@@H](OC)C5)sc34)ccc21', 'unphosphorylated VEGF-R2Δ50 (FLVK) (Homo sapiens, UniProt P35968, DEL940-989/E990V)', 'Ki', 0.475),
  ('CNC(=O)n1c(C)cc2c(F)c(Oc3ccnc4cc(C(=O)N5CC[C@H](O)C5)sc34)ccc21', 'unphosphorylated VEGF-R2Δ50 (FLVK) (Homo sapiens, UniProt P35968, DEL940-989/E990V)', 'Ki', 0.525);

Qu. Supply reported Ki belonging to this compound: CNC(=O)n1c(C)cc2cc(Oc3ccnc4cc(-c5nc(CO)cs5)sc34)ccc21
Ans. 0.2

---

Assayed Target: unphosphorylated VEGF-R2Δ50 (FLVK) (Homo sapiens, UniProt P35968, DEL940-989/E990V)
Construct: VEGF-R2Δ50 contains residues 806-939 and 990-1171; made in house; host or cells: baculovirus/insect cell system
Test Name: VEGF-R2 coupled spectrophotometric assay, unphosphorylated construct (FLVK)
Assay type: biochemical
Please respond with Y when measured Ki is strictly beneath 600 pM, and with N in all other cases.

Study these solved cases before continuing.
INSERT INTO assay_data (structure_notation, category_label) VALUES
  ('CNC(=O)n1c(C)cc2cc(Oc3ccnc4cc(C(=O)N5CC(F)(F)C[C@H]5CO)sc34)ccc21', 'N'),
  ('C#CCNC(=O)n1c(C)cc2cc(Oc3ccnc4cc(C(=O)N5CC[C@H](OC)C5)sc34)ccc21', 'N'),
  ('CNC(=O)n1c(C)cc2cc(Oc3ccnc4cc(C(=O)N5CC[C@@H](N(C)C)C5)sc34)ccc21', 'N'),
  ('CNC(=O)n1c(C)cc2cc(Oc3ccnc4cc(C(=O)N5CC[C@@H](O)C5)sc34)ccc21', 'N'),
  ('CO[C@H]1CCN(C(=O)c2cc3nccc(Oc4ccc5c(c4)cc(C)n5C(=O)NCC#CC4CC4)c3s2)C1', 'N'),
  ('Cc1cc2cc(Oc3ccnc4cc(C(=O)N5CC[C@@H](N(C)C)C5)sc34)ccc2n1C(=O)NCCO', 'N'),
  ('C#CCNC(=O)n1c(C)c(Cl)c2c(F)c(Oc3ccnc4cc(C(=O)N5CC[C@H](O)C5)sc34)ccc21', 'Y'),
  ('Cc1c(Cl)c2c(F)c(Oc3ccnc4cc(C(=O)N5CC[C@H](O)C5)sc34)ccc2n1C(=O)NC1CC1', 'Y'),
  ('C#CCNC(=O)n1c(C)cc2c(F)c(Oc3ccnc4cc(C(=O)N5CCC[C@H]5CO)sc34)ccc21', 'Y'),
  ('CCCNC(=O)n1c(C)cc2cc(Oc3ccnc4cc(C(=O)N5CC[C@@H](N(C)C)C5)sc34)ccc21', 'Y');

Qu. Identify whether the compound Cc1cc2cc(Nc3ccnc4cc(C(=O)N5CCC[C@H]5CO)sc34)ccc2n1C(=O)NC(C)C records Ki below 600 pM.
Ans. N

Qu. Identify whether the compound CNC(=O)n1c(C)cc2cc(Nc3ccnc4cc(C(=O)N5CCC[C@@H]5CO)sc34)ccc21 records Ki below 600 pM.
Ans. N

Qu. Identify whether the compound CO[C@@H]1CCN(C(=O)c2cc3nccc(Oc4ccc5c(c4)cc(C)n5C(=O)NCC#CC4CC4)c3s2)C1 records Ki below 600 pM.
Ans. Y

Qu. Identify whether the compound C#CCNC(=O)n1c(C)cc2cc(Nc3ccnc4cc(C(=O)N5CC[C@H](OC)C5)sc34)ccc21 records Ki below 600 pM.
Ans. N

Qu. Identify whether the compound CNC(=O)n1c(C)cc2cc(Oc3ccnc4cc(C(=O)N5C[C@H](OC)[C@H](OC)C5)sc34)ccc21 records Ki below 600 pM.
Ans. N

Qu. Identify whether the compound CCOC(=O)c1csc(-c2cc3nccc(Nc4ccc5c(c4)cc(C)n5C(=O)NC)c3s2)n1 records Ki below 600 pM.
Ans. N

---

Assayed Target: unphosphorylated VEGF-R2Δ50 (FLVK) (Homo sapiens, UniProt P35968, DEL940-989/E990V)
Construct: VEGF-R2Δ50 contains residues 806-939 and 990-1171
Test Name: VEGF-R2 coupled spectrophotometric assay, unphosphorylated construct (FLVK)
Catalogue of log10(Ki) values
Lab note - Ki converted to log10 from values in nM.

# count of solved cases: 8
INSERT INTO results (compound, recorded_result) VALUES
  ('C#CCNC(=O)n1c(C)cc2cc(Nc3ccnc4cc(C(=O)N5CC[C@H](O)C5)sc34)ccc21 [Example 1j]', -0.14),
  ('COC[C@@H]1C[C@@H](O)CN1C(=O)c1cc2nccc(Nc3ccc4c(c3)cc(C)n4C(=O)NC3CC3)c2s1 [Example 3h]', 0.08),
  ('C#CCNC(=O)n1c(C)cc2cc(Oc3ccnc4cc(C(=O)N5C[C@@H](O)[C@@H](O)C5)sc34)ccc21 [Example 4w]', -0.76),
  ('CNC(=O)n1c(C)cc2cc(Oc3ccnc4cc(C(=O)N5CCC[C@@H]5COC)sc34)ccc21 [Example 4e]', -0.85),
  ('CNC(=O)n1c(C)cc2cc(Oc3ccnc4cc(C(=O)N(C)CCO)sc34)ccc21 [Example 3n]', -0.30),
  ('COC[C@@H]1CCCN1C(=O)c1cc2nccc(Oc3ccc4c(c3)cc(C)n4C(=O)NCC#CCO)c2s1 [Example 4d]', -0.39),
  ('C#CCNC(=O)n1c(C)cc2cc(Oc3ccnc4cc(C(=O)N5CC[C@@H](OC)C5)sc34)ccc21 [Example 4l]', -0.72),
  ('CNC(=O)n1c(C)cc2cc(Nc3ccnc4cc(C(=O)N5CCC[C@@H]5COC)sc34)ccc21 [Example 1b]', -0.02);

Qu. Supply reported log10(Ki) belonging to this compound: C#CCNC(=O)n1c(C)cc2cc(Oc3ccnc4cc(C(=O)N5CC[C@@H](O)C5)sc34)ccc21 [Example 4o]
Ans. -0.20

Qu. Supply reported log10(Ki) belonging to this compound: CO[C@H]1CCN(C(=O)c2cc3nccc(Oc4ccc5c(c4F)c(Cl)c(C)n5C(=O)NC4CC4)c3s2)C1 [Example 6c]
Ans. -0.16

Qu. Supply reported log10(Ki) belonging to this compound: CCCNC(=O)n1c(C)cc2cc(Oc3ccnc4cc(C(=O)N5CC[C@H](OC)C5)sc34)ccc21 [Example 9d]
Ans. -0.64
